Assay: Ratio of drug level in brain to blood in Wistar rat at 1.7 MBq, iv administered as single dose measured after 5 mins post-injection
Type: ADME, organism-based
assayEndpoint: Kp at 5 min
Give bare numbers.

Query: Given O=C1Nc2ccccc2/C1=C/c1ccc([18F])cc1 , state its recorded Kp at 5 min.
Response: 3

###

Assay: Metabolic stability in Wistar rat blood assessed as compound remaining at 30 MBq, iv after 5 mins by radio-HPLC analysis
Format: ADME, organism-based
Details: read-out: Stability
assayEndpoint: remaining at 5 min (%)
Give bare numbers, in %.

Query: Given O=C1Nc2ccccc2/C1=C/c1ccc([18F])cc1 , state its recorded remaining at 5 min.
Response: 40
